Value source: ChEMBL document CHEMBL6177982

- assay remarks: Apparent volume of distribution in male Sprague-Dawley rat at 1 mg/kg, iv by LC-MS/MS analysis
- Type: ADME, organism-based
- stated conditions: in vivo, read-out: Vz
assay endpoint: Vd (L/kg)
Give bare numbers, in L/kg.

In: Tell me the measured Vd of `O=S(=O)(/C=C/c1cn(-c2ccccc2)nc1-c1cccnc1)c1ccccc1` , please.
Out: 0.86

====

- Tested on: HCT-116
- assay remarks: Antiproliferative activity against human HCT-116 cells assessed as inhibition of cell proliferation incubated for 72 hrs by MTT assay
- Assay type: functional, cell-based
- stated conditions: HCT-116, 72 h
pIC50: −log10 of the molar value.
Assign YES to entries whose pIC50 meets or exceeds 5; assign NO to the rest.

Solved cases (8 shown):
>  <molecule>
Cc1ccccc1S(=O)(=O)/C=C/c1cn(-c2ccccc2)nc1-c1cccnc1

>  <discrete label>
YES

$$$$
>  <molecule>
Cc1ccc(S(=O)(=O)/C=C/c2cn(-c3ccccc3)nc2-c2cccnc2)cc1

>  <discrete label>
YES

$$$$
>  <molecule>
NC(=O)C1CCCCN1C(=O)/C=C/c1cn(-c2ccccc2)nc1Cc1ccccc1 (centres undefined)

>  <discrete label>
NO

$$$$
>  <molecule>
NC(=O)C1CCCCN1C(=O)/C=C/c1cn(-c2ccccc2)nc1-c1cccnc1 (centres undefined)

>  <discrete label>
YES

$$$$
>  <molecule>
CCOC(=O)c1cccc(-c2nn(-c3ccccc3)cc2/C=C/C(=O)N2CCCCC2C(N)=O)c1 (centres undefined)

>  <discrete label>
NO

$$$$
>  <molecule>
NC(=O)C1CCCCN1C(=O)/C=C/c1cn(-c2ccccc2)nc1-c1ccc2ccccc2c1 (centres undefined)

>  <discrete label>
NO

$$$$
>  <molecule>
O=S(=O)(/C=C/c1cn(-c2ccccc2)nc1-c1cccnc1)c1ccc(Cl)cc1

>  <discrete label>
YES

$$$$
>  <molecule>
O=S(=O)(/C=C/c1cn(-c2ccccc2)nc1-c1cccnc1)c1ccccc1

>  <discrete label>
YES

$$$$

In: Threshold query (pIC50 >= 5) on NC(=O)C1CCCCN1C(=O)/C=C/c1cn(-c2ccccc2)nc1-c1cccc([N+](=O)[O-])c1 (centres undefined)
Out: NO

In: Threshold query (pIC50 >= 5) on NC(=O)C1CCCCN1C(=O)/C=C/c1cn(-c2ccccc2)nc1-c1cncc(C(F)(F)F)c1 (centres undefined)
Out: NO
